test: Plasma protein binding, human; format: in vitro ADME; conditions: pH 7.4
Result Type: fraction unbound at 16 h
Format: numeric value only, no unit, no commentary.

q: Given CC(C)n1c(=O)n(C)c2cnc3cc(F)c(-c4ccc(OCCCN5CCCCC5)nc4)cc3c21 , state its recorded fraction unbound at 16 h.
a: 0.261

* * *

molecular target: UniProtKB Q13315; test: Cellular ATM kinase inhibition, various assays; type: cell-based
Sequence (Q13315 whole entry): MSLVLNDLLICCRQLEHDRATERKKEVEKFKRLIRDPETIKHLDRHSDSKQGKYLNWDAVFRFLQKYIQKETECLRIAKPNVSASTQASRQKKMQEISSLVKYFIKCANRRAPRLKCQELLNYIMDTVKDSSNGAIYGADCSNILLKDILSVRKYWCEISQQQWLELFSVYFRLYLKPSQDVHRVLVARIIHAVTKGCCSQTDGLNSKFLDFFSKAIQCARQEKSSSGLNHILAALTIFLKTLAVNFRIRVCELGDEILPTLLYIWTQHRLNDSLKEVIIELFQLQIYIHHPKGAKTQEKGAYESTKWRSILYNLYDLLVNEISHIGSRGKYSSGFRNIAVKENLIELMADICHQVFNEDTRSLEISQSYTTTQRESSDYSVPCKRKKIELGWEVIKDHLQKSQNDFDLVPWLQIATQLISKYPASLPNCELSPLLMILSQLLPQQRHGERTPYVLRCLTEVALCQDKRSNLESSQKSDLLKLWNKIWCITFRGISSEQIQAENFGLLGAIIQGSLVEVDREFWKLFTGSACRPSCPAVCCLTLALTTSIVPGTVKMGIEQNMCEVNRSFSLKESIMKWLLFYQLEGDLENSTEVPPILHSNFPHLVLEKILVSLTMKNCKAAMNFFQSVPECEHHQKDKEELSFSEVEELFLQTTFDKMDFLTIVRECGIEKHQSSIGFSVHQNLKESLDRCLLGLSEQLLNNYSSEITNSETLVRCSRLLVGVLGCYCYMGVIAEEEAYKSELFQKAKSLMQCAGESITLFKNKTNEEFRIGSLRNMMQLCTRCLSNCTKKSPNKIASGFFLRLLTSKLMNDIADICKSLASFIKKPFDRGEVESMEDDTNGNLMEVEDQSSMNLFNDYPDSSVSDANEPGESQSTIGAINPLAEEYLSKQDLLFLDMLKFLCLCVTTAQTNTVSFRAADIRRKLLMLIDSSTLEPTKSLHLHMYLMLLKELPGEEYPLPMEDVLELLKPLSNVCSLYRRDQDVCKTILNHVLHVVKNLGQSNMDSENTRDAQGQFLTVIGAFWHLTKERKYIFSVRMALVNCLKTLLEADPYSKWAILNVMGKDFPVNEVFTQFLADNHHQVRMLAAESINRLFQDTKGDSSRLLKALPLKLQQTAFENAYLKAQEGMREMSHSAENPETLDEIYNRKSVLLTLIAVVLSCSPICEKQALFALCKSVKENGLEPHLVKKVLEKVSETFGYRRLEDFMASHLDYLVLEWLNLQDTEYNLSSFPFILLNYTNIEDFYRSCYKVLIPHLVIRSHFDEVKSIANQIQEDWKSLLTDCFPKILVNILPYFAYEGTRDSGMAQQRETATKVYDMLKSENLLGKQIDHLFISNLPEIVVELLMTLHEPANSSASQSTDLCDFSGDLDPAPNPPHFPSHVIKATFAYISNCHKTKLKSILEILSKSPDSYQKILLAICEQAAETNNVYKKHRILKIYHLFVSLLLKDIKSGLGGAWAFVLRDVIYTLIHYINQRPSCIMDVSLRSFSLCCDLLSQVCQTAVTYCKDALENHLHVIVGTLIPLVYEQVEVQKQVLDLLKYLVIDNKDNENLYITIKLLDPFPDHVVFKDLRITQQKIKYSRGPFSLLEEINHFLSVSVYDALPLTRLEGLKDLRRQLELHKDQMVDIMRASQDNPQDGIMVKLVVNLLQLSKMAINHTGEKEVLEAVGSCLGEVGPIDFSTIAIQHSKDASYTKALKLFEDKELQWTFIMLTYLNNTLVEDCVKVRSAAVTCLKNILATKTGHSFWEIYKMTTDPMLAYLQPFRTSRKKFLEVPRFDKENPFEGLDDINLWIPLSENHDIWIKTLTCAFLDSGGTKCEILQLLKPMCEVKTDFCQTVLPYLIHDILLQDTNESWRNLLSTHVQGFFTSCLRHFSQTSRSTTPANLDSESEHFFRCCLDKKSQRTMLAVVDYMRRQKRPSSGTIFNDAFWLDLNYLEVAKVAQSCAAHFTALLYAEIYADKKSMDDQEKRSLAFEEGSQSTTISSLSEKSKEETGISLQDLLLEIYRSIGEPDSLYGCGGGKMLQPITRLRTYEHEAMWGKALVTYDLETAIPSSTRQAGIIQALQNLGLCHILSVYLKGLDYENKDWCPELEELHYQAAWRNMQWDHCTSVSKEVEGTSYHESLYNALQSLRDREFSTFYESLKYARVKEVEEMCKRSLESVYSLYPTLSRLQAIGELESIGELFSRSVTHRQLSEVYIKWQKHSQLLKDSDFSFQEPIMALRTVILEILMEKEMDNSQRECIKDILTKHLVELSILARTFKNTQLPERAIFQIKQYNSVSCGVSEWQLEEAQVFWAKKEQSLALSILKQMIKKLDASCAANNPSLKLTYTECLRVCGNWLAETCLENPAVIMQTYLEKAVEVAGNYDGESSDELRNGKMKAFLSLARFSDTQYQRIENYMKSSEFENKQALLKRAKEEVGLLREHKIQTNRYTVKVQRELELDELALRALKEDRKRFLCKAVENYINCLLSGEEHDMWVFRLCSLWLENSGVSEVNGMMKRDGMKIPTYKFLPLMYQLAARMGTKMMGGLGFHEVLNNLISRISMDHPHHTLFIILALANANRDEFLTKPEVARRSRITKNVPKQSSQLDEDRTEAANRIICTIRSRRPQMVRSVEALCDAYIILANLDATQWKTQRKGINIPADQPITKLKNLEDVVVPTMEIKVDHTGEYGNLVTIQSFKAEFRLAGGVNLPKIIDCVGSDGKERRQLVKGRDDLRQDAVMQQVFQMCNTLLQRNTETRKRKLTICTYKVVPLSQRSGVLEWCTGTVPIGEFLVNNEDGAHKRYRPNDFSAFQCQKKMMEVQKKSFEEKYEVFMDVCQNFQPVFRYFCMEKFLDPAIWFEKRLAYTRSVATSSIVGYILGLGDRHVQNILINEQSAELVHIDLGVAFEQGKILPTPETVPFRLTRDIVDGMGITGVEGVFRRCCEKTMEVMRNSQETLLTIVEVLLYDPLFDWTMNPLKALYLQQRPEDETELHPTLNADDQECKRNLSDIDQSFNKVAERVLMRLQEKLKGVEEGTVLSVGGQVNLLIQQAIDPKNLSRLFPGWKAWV
Result Type: IC50

q: Given CC(C)n1c(=O)n(C)c2cnc3cc(F)c(-c4ccc(OCCCN5CCCCC5)nc4)cc3c21 [AZD1390] , state its recorded IC50.
a: 0.5 to 3 nM
